Catalogue of cytotoxicity at 10 µM values
# assay_info: Toxicity liver stage against HepG2, at 10uM
# Assay type: cell-based
# Parameters: test concentration 10 uM, cell line HepG2-A16-CD81EGFP
# condition_notes: human, HepG2-A16-CD81EGFP cells; read-out: INHIBITION

Sample records with cytotoxicity at 10 µM:
compound: CN(C)c1ncc2c(O)nc(C3CCCNC3)cc2n1 (configuration not stated)
cytotoxicity at 10 µM: 8.62%
//
compound: Cc1ccccc1-n1ccnc1S(=O)(=O)Cc1nsc(N(C)C)n1
cytotoxicity at 10 µM: 2.56%
//
compound: CN(C)C(=O)N1CCc2onc(C(=O)Nc3cccnc3)c2C1
cytotoxicity at 10 µM: 4.85%
//
compound: COc1cc2nc3n(c(=O)c2cc1OC)CCN(C)CC3
cytotoxicity at 10 µM: 2.39%
//
compound: Cc1nc(CNCc2cccnc2Oc2ccc(C)c(F)c2F)c[nH]1
cytotoxicity at 10 µM: 6.87%

IN: For O[C@@H]1C[C@@H](c2nc(-c3ccc(F)cc3)no2)N(C2CCOCC2)C1 , what is its reported cytotoxicity at 10 µM?
OUT: 4.51%

IN: Would you kindly share the measured cytotoxicity at 10 µM for CC(NC(=O)Nc1ccc(-c2csnn2)cc1)C(=O)NC(C)(C)C (configuration not stated) ?
OUT: 9.11%

IN: Can you look up the measured cytotoxicity at 10 µM of Cc1noc(CN(CCO)Cc2cc(Br)ccc2F)n1 for me?
OUT: 2.2%
